// data source = patent US20260001871A1

Biological target: human MRGPRD (Homo sapiens)
Sequence (Q8TDS7 whole entry): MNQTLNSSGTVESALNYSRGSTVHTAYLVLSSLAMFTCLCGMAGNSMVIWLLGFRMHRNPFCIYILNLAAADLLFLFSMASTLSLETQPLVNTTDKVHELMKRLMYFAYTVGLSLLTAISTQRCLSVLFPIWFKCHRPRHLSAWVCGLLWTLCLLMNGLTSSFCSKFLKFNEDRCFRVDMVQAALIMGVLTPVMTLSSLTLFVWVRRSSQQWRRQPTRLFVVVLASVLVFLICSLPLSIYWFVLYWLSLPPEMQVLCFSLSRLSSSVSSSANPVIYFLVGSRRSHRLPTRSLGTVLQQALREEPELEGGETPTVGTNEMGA
Assay: MRGPRD antagonist activity, IP-One HTRF assay in CHO cells stably expressing human MRGPRD (versus 100 μM β-Alanine agonist)
measurement type: IC50

Recorded results for 4 molecules are shown here.
[
  {
    "molecule": "Cn1cc(CNC(=O)c2nnn(-c3ccc(-c4ccccc4)cc3)c2C2CC2)cn1 [Compound 14-34]",
    "value": "1000 to 3000 nM"
  },
  {
    "molecule": "COCc1ccc(-c2ccc(-n3nnc(C(=O)Nc4ccncc4)c3C3CC3)cc2)cc1 [Compound 7-46]",
    "value": "100 to 500 nM"
  },
  {
    "molecule": "COc1cccc(-c2ccc(-n3nnc(C(=O)Nc4ccncc4)c3C3CC3)cc2)c1 [Compound 7-153]",
    "value": "500 to 1000 nM"
  },
  {
    "molecule": "O=C(Nc1ccncc1)c1nnn(-c2ccc(-c3ccc(CO)cc3)cc2)c1C1CC1 [Compound 7-69]",
    "value": "100 to 500 nM"
  }
]

Reported IC50 ( O=C(Nc1ccncc1)c1nnn(-c2cccc(-c3cnn4c3CCC4)c2)c1C1CC1 [Compound 7-283] ) = 500 to 1000 nM

Reported IC50 ( Cn1ncc2c1CCC2NC(=O)c1nnn(-c2ccc(-c3ccccc3)cc2)c1C1CC1 (centres unmarked) [Compound 14-70] ) = 1000 to 3000 nM

Reported IC50 ( CC(=O)c1cccc(-c2ccc(-n3nnc(C(=O)Nc4ccncc4)c3C3CC3)cc2)c1 [Compound 7-80] ) = 100 to 500 nM

Reported IC50 ( O=C(Nc1ccncc1)c1nnn(-c2ccc(-c3n[nH]c4cnccc34)cc2)c1C1CC1 [Compound 7-165] ) = 1000 to 3000 nM
